// data source = patent US8106055B2

target: human bradykinin 1 receptor (B1R) (Homo sapiens, UniProt P46663); construct: expressed in transfected cells; host or cells: CHO K1 cells; assay: Functional investigation on the human bradykinin 1 receptor (B1R), Ca2+ FLIPR assay in CHO K1 hB1R cells; format: cell-based; settings: B1R antagonism human; test substance 10 μM; Ca2+ FLIPR, CHO K1 hB1R cells
Sequence (P46663 whole entry): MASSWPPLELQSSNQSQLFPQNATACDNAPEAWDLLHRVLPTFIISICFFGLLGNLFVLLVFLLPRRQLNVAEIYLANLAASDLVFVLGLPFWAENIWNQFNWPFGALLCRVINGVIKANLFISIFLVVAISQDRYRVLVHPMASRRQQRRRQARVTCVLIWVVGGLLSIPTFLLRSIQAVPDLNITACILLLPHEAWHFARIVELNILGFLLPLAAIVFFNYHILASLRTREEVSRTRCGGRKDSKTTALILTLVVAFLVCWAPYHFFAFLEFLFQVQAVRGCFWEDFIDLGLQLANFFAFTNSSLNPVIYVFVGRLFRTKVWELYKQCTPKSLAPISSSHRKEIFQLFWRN
Categorized via B1R Ant. h [10 μM] % Inhibition: bottom end: < 20%; midrange: ≥ 20% and < 70%; top end: ≥ 70%

Where would COc1ccc(S(=O)(=O)N2CCCCC2COCC(=O)NCCC2CCC(C(c3ccc(Cl)cc3)N(C)C)CC2)cc1OC (centres unmarked) land among the classes by reported B1R Ant. h [10 μM] % Inhibition?
bottom end

Same read-out for CN(C)C(c1ccc(F)cc1)C1CCC(NC(=O)COC2CCN(S(=O)(=O)c3ccc(Cl)cc3)C2)CC1 (centres unmarked) ?
bottom end

Same read-out for COc1cc(C)c(S(=O)(=O)N(CCOCC(=O)NCC2CCC(C(c3cccc(F)c3)N(C)C)CC2)Cc2ccccc2)c(C)c1 (centres unmarked) ?
top end

Same read-out for COc1ccc(S(=O)(=O)N2CCCCC2COCC(=O)NCC2CCC(C(CCc3ccccc3)N(C)C)CC2)cc1 (centres unmarked) ?
top end

Same read-out for CN(C)C(c1ccc(F)cc1)C1CCC(CCNC(=O)COCC2CCCCN2S(=O)(=O)c2ccc(Cl)c(Cl)c2)CC1 (centres unmarked) ?
midrange

Same read-out for CN(C)C(c1cccc(F)c1)C1CCC(CNC(=O)COCCC2CCN(S(=O)(=O)c3ccccc3)CC2)CC1 (centres unmarked) ?
bottom end

Same read-out for COc1cc(C)c(S(=O)(=O)N2CCC(OCC(=O)NCC3CCC(C(c4ccc(F)cc4)N(C)C)CC3)C2)c(C)c1C (centres unmarked) ?
top end

Same read-out for CN(C)C(c1ccc(F)cc1)C1CCC(CCNC(=O)COC2CCN(S(=O)(=O)c3ccc(Cl)cc3Cl)C2)CC1 (centres unmarked) ?
top end

Same read-out for CN(C)C(c1cccc(F)c1)C1CCC(CNC(=O)COCCN(C)S(=O)(=O)c2ccc(F)cc2)CC1 (centres unmarked) ?
bottom end

Same read-out for CN(C)C(c1ccc(F)cc1)C1CCC(CNC(=O)COCCN(C)S(=O)(=O)c2cccc(C(F)(F)F)c2)CC1 (centres unmarked) ?
midrange

Same read-out for CN(C)C(c1cccc(F)c1)C1CCC(NC(=O)COCC2CCCN2S(=O)(=O)c2ccc(Cl)c(Cl)c2)CC1 (centres unmarked) ?
midrange

====

molecular target: serotonin (5-HT) reuptake (Rattus norvegicus); construct: synaptosomes are freshly isolated from areas of the rat brain; from tissue; host or cells: rat brain synaptosomes (P2 fraction); test: Inhibition of serotonin (5HT) reuptake in synaptosomes from rat brain; format: biochemical; conditions: test concentration of 10 μM
Sequence (P31652 whole entry): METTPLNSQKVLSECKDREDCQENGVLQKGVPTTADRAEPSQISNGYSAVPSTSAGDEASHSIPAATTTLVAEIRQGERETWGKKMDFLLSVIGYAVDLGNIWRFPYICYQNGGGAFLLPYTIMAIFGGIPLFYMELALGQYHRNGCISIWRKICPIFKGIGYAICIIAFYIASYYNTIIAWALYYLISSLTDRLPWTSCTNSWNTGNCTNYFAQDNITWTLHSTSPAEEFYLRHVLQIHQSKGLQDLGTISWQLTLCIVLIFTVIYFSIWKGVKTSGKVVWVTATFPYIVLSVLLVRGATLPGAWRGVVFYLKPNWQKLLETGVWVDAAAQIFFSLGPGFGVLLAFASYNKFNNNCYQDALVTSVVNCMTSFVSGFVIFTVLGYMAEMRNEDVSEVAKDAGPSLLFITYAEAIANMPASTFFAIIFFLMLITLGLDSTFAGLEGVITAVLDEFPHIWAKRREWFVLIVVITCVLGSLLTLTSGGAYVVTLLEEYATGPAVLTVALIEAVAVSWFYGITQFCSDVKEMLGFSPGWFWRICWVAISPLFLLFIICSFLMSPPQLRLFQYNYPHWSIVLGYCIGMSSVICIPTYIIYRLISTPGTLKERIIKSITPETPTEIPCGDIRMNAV
What 5-HT (inhibition of reuptake of serotonin, % inhibition) was measured for each of the following?
Report the figure in % without appending any unit label.

Which 5-HT (inhibition of reuptake of serotonin, % inhibition) is reported for this compound? COc1ccc(S(=O)(=O)N(C)CCOCC(=O)NCC2CCC(C(CCc3ccccc3)N(C)C)CC2)cc1 (stereo not drawn) [Example 550]
74

Same read-out for COc1ccc(S(=O)(=O)N2CCCCC2COCC(=O)NC2CCC(C(c3cccc(F)c3)N(C)C)CC2)cc1 (stereo not drawn) [Example 255] ?
91

Same read-out for COc1cc(C)c(S(=O)(=O)N(C)CCOCC(=O)NCCC2CCC(C(c3ccc(F)cc3)N(C)C)CC2)c(C)c1C (stereo not drawn) [Example 354] ?
90

Same read-out for CN(C)C(c1ccc(F)cc1)C1CCC(CNC(=O)COCCN(C)S(=O)(=O)c2cccc(C(F)(F)F)c2)CC1 (stereo not drawn) [Example 390] ?
90

Same read-out for CN(C)C(c1ccc(F)cc1)C1CCC(CCNC(=O)COC2CCCCC2N(C)S(=O)(=O)c2ccc(Cl)c(Cl)c2)CC1 (stereo not drawn) [Example 244] ?
88

Same read-out for CN(C)C(c1cccc(F)c1)C1CCC(NC(=O)COCC2CCCN2S(=O)(=O)c2ccc(Cl)c(Cl)c2)CC1 (stereo not drawn) [Example 211] ?
90

Same read-out for COc1cc(C)c(S(=O)(=O)N(CCOCC(=O)NCC2CCC(C(c3cccc(F)c3)N(C)C)CC2)Cc2ccccc2)c(C)c1C (stereo not drawn) [Example 414] ?
67

Same read-out for COc1ccc(S(=O)(=O)N2CCCCC2COCC(=O)NC2CCC(C(c3ccc(F)cc3)N(C)C)CC2)cc1OC (stereo not drawn) [Example 555] ?
86

Same read-out for CN(C)C(c1cccc(F)c1)C1CCC(CCNC(=O)COCC2CCCN(S(=O)(=O)c3ccccc3)C2)CC1 (stereo not drawn) [Example 295] ?
99
